For each entry below, report its TGI value.
Tested on: MOLT-4 leukemia
Test name: NCI tumour cell line growth inhibition, 48 h
Field format: number, assumed µM, no unit text.

Query block: Any idea what TGI was measured for `CN(C)CCCn1c2ccccc2c2cnccc21` ?
Result block: 83.9

Query block: Another: COC(=O)C(C)N1C(=O)c2ccccc2I1OC(C)=O (configuration not stated)
Result block: 45.7

Query block: Another: `CCN(CC)CCOc1ccc(/C=C2\C[C@H]3[C@@H]4CC=C5C[C@@H](OC(C)=O)CC[C@]5(C)[C@H]4CC[C@]3(C)[C@H]2OC(C)=O)cc1OC`
Result block: 20.6

Query block: Another: `CCCCCCCCCCCCCCCC[N+]1(CC)CCCC1`
Result block: 2.19

###

For each entry below, report its TGI value.
System: M19-MEL melanoma
Test name: NCI tumour cell line growth inhibition, 48 h

Query block: Any idea what TGI was measured for `Cc1nnc2n1N=C(CC(=O)c1ccc(O)cc1O)CN2N` ?
Result block: > 100 µM

Query block: Another: `NC1=NS(=O)(=O)N=C(N)C1=Cc1ccc([N+](=O)[O-])o1`
Result block: 30 µM

Query block: Another: `CC1=C(C#N)C(N)=C2C(C)=C(C#N)C(N)=C12`
Result block: > 100 µM

Query block: Another: `CC1=CC2=C(C)C3(CC3)[C@@](C)(O)C(=O)C2=C1`
Result block: 0.732 µM

Query block: Another: `Clc1ccc2c(Cl)ncnc2c1`
Result block: > 100 µM

Query block: Another: `COc1cc(N=Nc2cccc(S(=O)(=O)O)c2)c(C)cc1N=Nc1ccc(/C=C/c2ccc(N=[N+]([O-])c3ccc(/C=C/c4ccc(N=Nc5cc(C)c(N=Nc6cccc(S(=O)(=O)O)c6)cc5OC)cc4)c(S(=O)(=O)O)c3)cc2S(=O)(=O)O)cc1`
Result block: > 100 µM

Query block: Another: CCOC(=O)C1C(c2cc(OC)c(O)c(OC)c2)c2cc3c(cc2OC1(C)O)OCO3 (stereo not drawn)
Result block: > 100 µM

Query block: Another: `Cc1cc(NS(=O)(=O)c2ccc(Nc3c4ccccc4nc4c(C(=O)NCCN(C)C)ccc(Cl)c34)cc2)no1`
Result block: 16.9 µM

Query block: Another: CCOC(=O)CCC1(C(=O)OC)CCCC1=O (stereo not drawn)
Result block: > 100 µM

Query block: Another: `S=C(Nc1ccccc1)Nc1[nH]c(=S)sc1-c1nc2ccccc2[nH]1`
Result block: > 100 µM

Query block: Another: CC1CCC(O)C(C(O)CC2CC(=O)N(C)C(=O)C2)C1 (stereo not drawn)
Result block: > 100 µM

Query block: Another: `c1ccc(C2=NN3CN(N2)c2ccccc2OCCCOc2ccccc23)cc1`
Result block: > 100 µM

Query block: Another: `COc1ccc(C(=O)Cc2cc(OC)ccc2OC)cc1`
Result block: > 100 µM

Query block: Another: `Cc1ccc2c(c1)c(=O)c1c(NCCN(C)C)ccc3nnn2c31`
Result block: 20.8 µM

Query block: Another: `CCN(CC)c1ccc(C(=C2C=CC(=[N+](CC)CC)C=C2)c2ccc(N(CC)CC)cc2)cc1`
Result block: 1.31 µM

Query block: Another: O=c1c2ccccc2nc(-c2ccccc2)n1NCC1(O)OCC(O)C(O)C1O (stereo not drawn)
Result block: > 100 µM

Query block: Another: COC(=O)C12CC(C3CC31)C1CC12 (stereo not drawn)
Result block: > 100 µM

Query block: Another: `N#Cc1c2c(c(N=[N+]=[N-])n3c1nc1ccccc13)CCCC2`
Result block: 6.1 µM

###

Tested on: HCT-15 colon
Test name: NCI tumour cell line growth inhibition, 48 h
For each entry below, report its TGI value.

Query block: Any idea what TGI was measured for `Cc1ccc(S(=O)(=O)Nn2c(-c3ccccc3)c(C#N)c(-c3ccc([N+](=O)[O-])cc3)c(C#N)c2=O)cc1` ?
Result block: > 100 µM

Query block: Another: `O=c1oc(-c2ccc(O)c(O)c2)cc2cc(O)cc(O)c12`
Result block: > 100 µM

Query block: Another: `COc1cc(N=Nc2cccc(S(=O)(=O)O)c2)c(C)cc1N=Nc1ccc(/C=C/c2ccc(N=[N+]([O-])c3ccc(/C=C/c4ccc(N=Nc5cc(C)c(N=Nc6cccc(S(=O)(=O)O)c6)cc5OC)cc4)c(S(=O)(=O)O)c3)cc2S(=O)(=O)O)cc1`
Result block: > 100 µM

###

Tested on: HS 578T breast
Test name: NCI tumour cell line growth inhibition, 48 h
For each entry below, report its TGI value.
Field format: number, assumed µM, no unit text.

Query block: Param readout = TGI; param system = HS 578T breast; param query = `O=C(/C=C/N1CCN(c2cccc(C(F)(F)F)c2)CC1)c1ccc(Cl)cc1Cl` ; response: value
Result block: 63.8

Query block: Another: `COc1cc[nH]c1/C=C1\C(=O)Nc2ccc(F)c(C#CC3(O)CCOCC3)c21`
Result block: 3.56

###

For each entry below, report its TGI value.
Test system: UACC-257 melanoma
Test name: NCI tumour cell line growth inhibition, 48 h
Field format: number, assumed µM, no unit text.

Query block: Param readout = TGI; param system = UACC-257 melanoma; param query = Cc1nn(-c2ccccc2)c2c1C1C(=C(c3ccc(Cl)cc3)N2)C(=O)Nc2ccccc21 (stereo unspecified) ; response: value
Result block: 25.4

Query block: Another: `CC[C@@]1(OC(=O)CN)C(=O)OCc2c1cc1n(c2=O)Cc2cc3cc(N)ccc3nc2-1`
Result block: 1.66

Query block: Another: `Oc1cc2cc(-c3ccccc3)[nH]c2c2ccccc12`
Result block: 32.5

Query block: Another: `Cc1ccc(-c2cc(-c3ccc(Cl)cc3)nc(/N=C3\C(=O)N(CN4CCCCC4)c4ccc(Cl)cc43)n2)cc1`
Result block: 71.1

Query block: Another: `Cc1nnc([S-])s1.[Au+].c1ccc([PH+](c2ccccc2)c2ccccc2)cc1`
Result block: 3.09

Query block: Another: `C/C(=C(/c1ccc(O)cc1)c1ccc(OCCN2CCCC2)cc1)c1ccccc1`
Result block: 3.93

###

System: OVCAR-5 ovarian
Test name: NCI tumour cell line growth inhibition, 48 h
For each entry below, report its TGI value.
Field format: number, assumed µM, no unit text.

Query block: Any idea what TGI was measured for `O=C1c2cccnc2C(=O)c2c1c(C(=O)OCCCN1CCOCC1)c1ccccn21` ?
Result block: 4.73

Query block: Another: `Cc1ccc2ccccc2c1CC1S(=O)(=O)OCCOS1(=O)=O`
Result block: 24.4

Query block: Another: `Oc1ccc(-c2c3c(nc4c2CCc2ccc(Br)cc2-4)-c2cc(Br)ccc2CC3)cc1`
Result block: 40.6

Query block: Another: `COc1ccc2nc3ccc(OC)cc3c(SCCCN)c2c1`
Result block: 28.3

Query block: Another: OC(CC(c1ccccc1)c1ccc(Cl)cc1)c1ccc(Cl)cc1 (stereo unspecified)
Result block: 62

###

For each entry below, report its TGI value.
System: CCRF-CEM leukemia
Test name: NCI tumour cell line growth inhibition, 48 h

Query block: Param readout = TGI; param system = CCRF-CEM leukemia; param query = `O=C1c2ccccc2-c2cc3ccccc3c(=O)n21` ; response: value
Result block: > 100 µM

Query block: Another: `COc1cc2ccn3c4cc(OC)c(OC)cc4cc3c2cc1OC`
Result block: > 100 µM

Query block: Another: `C=CCc1c(O)c2ccccc2[nH]c1=O`
Result block: > 100 µM

Query block: Another: `CNc1ccc2nc(-c3ccc(OC(=O)N(C)C)cc3)cn2c1`
Result block: 32.3 µM

Query block: Another: NC(Cc1nn[nH]n1)C(=O)O (centres undefined)
Result block: > 100 µM

Query block: Another: `Cc1nc2c(n1Cc1ccc(Cl)cc1)C(=O)c1ccccc1C2=O`
Result block: > 75 µM

Query block: Another: `CN(C)c1ccc(C(=NNC(=O)c2cc3ccccc3[nH]2)c2ccc(N(C)C)cc2)cc1`
Result block: > 25.2 µM

Query block: Another: `Cc1cc(NS(=O)(=O)c2ccc(Nc3c4ccccc4nc4c(C(=O)NCCN(C)C)ccc(Cl)c34)cc2)no1`
Result block: 10.8 µM

Query block: Another: `Oc1cccc(-c2nc3ccccc3s2)c1`
Result block: > 100 µM

Query block: Another: `Cn1c(=O)n(-c2ccc(C(C)(C)C#N)cc2)c2c3cc(-c4cnc5ccccc5c4)ccc3ncc21`
Result block: > 100 µM

Query block: Another: `O=C1/C(=C/c2cccc(Oc3ccccc3)c2)N=C(c2ccccc2)N1c1nc2ccc(Sc3ccccc3)cc2[nH]1`
Result block: > 100 µM

Query block: Another: COC(=O)C(C)N1C(=O)c2ccccc2I1OC(C)=O (centres undefined)
Result block: 45.5 µM

Query block: Another: `Cc1ccc(Nc2nc(=O)[nH]c(=O)[nH]2)cc1N`
Result block: > 100 µM

Query block: Another: `O=C1CCSSCCC(=O)Nc2ccccc2N1`
Result block: > 100 µM
